- PROCEDURE DETAILS: StAR promoter reporter inhibitors, counter-screen for LRH-1 inverse agonist project, cell-based, luminescence, high throughput (AID 651611)
- CONDITION INFO: StAR promoter luciferase reporter counterscreen, at 3.6 µM, hits give high values
Active and inactive are the calls of the source. No stated cut-off is given here; in the data, active means inhibition above about 28%; inactive means the rest.
PARAMETER MEASURED: inhibition

Please review the following examples before continuing.
# COMPOUND, inhibition
data = [
    ("Cc1ccc(NC(=O)[C@H](Cc2c[nH]c3ccccc23)NC(=O)[C@@H]2Cc3ccccc3CN2)c(C)c1", "78.4% (active)"),
    ("Cc1cc(=O)oc2cc(OCC(=O)N3CCN(C(=O)C4COc5ccccc5O4)CC3)ccc12 (configuration not stated)", "21.1% (inactive)"),
]

We now examine a further compound.
Incoming: Form field: reported inhibition of "Cc1cc(=O)oc2cc(O)cc(OCc3ccccc3)c12"
Outgoing: 26% (inactive)

====

- TEST SYSTEM: Nuclear receptor coactivator 3 (Homo sapiens)
- PROCEDURE DETAILS: SRC3 coactivator transcriptional activity inhibitors, confirmation, cell-based, luminescence, quadruplicate (AID 588792);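 further: 0% = DMSO treated cells and 100% = gossypol at 36 µM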
- CONDITION INFO: HEK293 GAL4-SRC3 luciferase reporter, at 3.6 µM, hits give high values
PARAMETER MEASURED: inhibition (%)
Form entry: value (%) — number only.

Would you please look over these solved cases?
# MOLECULE, TEST SYSTEM, MEASURED NUMBER
data = [
    ("CCN1CCN(c2ccc(Nc3ccnc4ccccc34)cc2)CC1", "Nuclear receptor coactivator 3 (Homo sapiens)", 43.5),
    ("CCOc1ccccc1-n1c(SCC(=O)Nc2ccccc2C(=O)O)nc2ccccc2c1=O", "Nuclear receptor coactivator 3 (Homo sapiens)", 36.2),
    ("COc1ccc(C(=O)NCC(=O)OCc2c(Cl)cccc2Cl)cc1OC", "Nuclear receptor coactivator 3 (Homo sapiens)", -0.66),
    ("NCC(=O)Nc1ccc(Cl)cc1C(=O)c1ccc[nH]1", "Nuclear receptor coactivator 3 (Homo sapiens)", 66.1),
]

Incoming: What measured inhibition goes with "COc1ccc(NC(=O)c2cc(-c3cc(C)cc(F)c3)n[nH]2)cc1OC" ?
Outgoing: 23.5

Incoming: Any idea what its inhibition is? The molecule is "O=C(Cc1ccccc1)NNC(=O)Nc1cccc(Cl)c1"
Outgoing: 10.6

Incoming: Return reported inhibition; argument: "COc1ccc(C(=O)Nc2cnn(Cc3ccc(Cl)cc3)c2)cc1OC"
Outgoing: 26.3

Incoming: Can you look up the measured inhibition of "O=C1c2ccc3c4c(ccc(c24)C(=O)N1c1cccc(O)c1)C(=O)N(c1cccc(O)c1)C3=O" for me?
Outgoing: 30.3

====

- TEST SYSTEM: Serine protease HTRA1 (Homo sapiens)
- PROCEDURE DETAILS: HTRA1 protease inhibitors, retest, confirmation, biochemical, fluorescence polarization (AID 540248);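 further: 0% = HTRA1 with DMSO and 100% = wells lacking HTRA1; inhibitors block probe binding so polarization drops and inhibition rises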
- CONDITION INFO: recombinant HTRA1, FP-rhodamine activity-based probe, at 5.96 µM
This is one part of the list. Calls of active or inactive are those of the source.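 Rule for the calls: active = mean inhibition over three repeats above a set limit taken from the earlier primary screen (cut at about 37% in these data); inactive = the rest.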
Select the correct class. Options are t for active, f for inactive and nothing else.

Answered examples (5):
# GIVEN SMILES, LABEL VALUE
data = [
    ("COc1cccc2sc(NNC(=O)c3nc4ccccc4s3)nc12", "t"),
    ("O=[N+]([O-])c1cc(Cl)cc(/C=N/NC(=S)Nc2cc(S(=O)(=O)N3CCOCC3)ccc2Cl)c1O", "t"),
    ("Oc1ccc(CNc2ccccc2O)cc1", "f"),
    ("Oc1ccc(N=Cc2sc3ccccc3c2Cl)cc1", "t"),
    ("Cc1ccc(Nc2nc(-c3ccc(O)cc3O)cs2)nc1", "t"),
]

Kindly review the next molecule as well.
Incoming: Give the logged outcome of this assay for the following molecule: "O=C(N/N=C/c1cccnc1)c1cc2ccccc2cc1O"
Outgoing: f

====

- PROCEDURE DETAILS: VP16 transactivation reporter inhibitors, counter-screen for LRH-1 inverse agonist project, cell-based, luminescence, high throughput (AID 651615)
- CONDITION INFO: Gal4-VP16 luciferase reporter cells, at 3.6 µM, hits give high values
Let's look at some compounds and their measured inhibition.
Record the value in %, omitting the unit from your answer.

These solved cases illustrate the format of a correct answer.
# COMPOUND, MEASUREMENT UNIT, inhibition
rows = [
    ("COc1ccc2cc3c(N)nn(C(=O)c4ccccc4Cl)c3nc2c1", "%", 81.6),
    ("COc1ccc(/C=N/NC(=O)c2ccc(NC(=O)c3cccc([N+](=O)[O-])c3)cc2)c(OC)c1", "%", 2.35),
    ("CC(C)c1ccc(/C=C(\\c2nc3ccccc3[nH]2)S(=O)(=O)c2ccccc2)cc1", "%", 46.6),
    ("O=C(Cc1ccccc1)N/N=C/c1ccc([N+](=O)[O-])s1", "%", -9.91),
    ("COc1ccc(NC(=O)CSc2nc3nc(C)cc(C)c3c(=O)[nH]2)cc1", "%", -2.26),
    ("O=[N+]([O-])c1cnccc1Nc1cccc(F)c1", "%", 10),
]

Next compound, please.
Incoming: # query: inhibition of entry O=C(NCC1CCCO1)c1cc2c([nH]c3ccccc32)c(-c2ccc(F)cc2)n1 (stereo not given)
Outgoing: 27.2

====

Measured inhibition of individual entries
- PROCEDURE DETAILS: TR-FRET optical interference artefacts, confirmation, artefact control for LEDGF/p75-dependent integration inhibitor project, biochemical, HIV-1 IN multimerization (AID 1053135);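 further: 0% = integrase with antibodies and DMSO and 100% = antibodies without integrase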
- CONDITION INFO: TR-FRET optical interference counterscreen, at 7.7 µM, hits give high values
Some of the results follow.
Answer in %, number only, no unit symbol.

# MOLECULE, inhibition, %
records = [
    ("O=S(=O)(Nc1ccc(O)c2ccccc12)c1ccc(OC(F)(F)F)cc1", -5.75),
    ("CN(C)/C=C/C(=O)c1cnc2sccn2c1=O", -3.51),
    ("CCOC(=O)/C(C#N)=C\\c1c(C)cc(C)c(COC(C)=O)c1C", -1.03),
    ("O=C1C=CC(=O)N1c1ccc(N2CCCCC2)cc1", -8.48),
    ("COc1ccccc1-c1cc(C(=O)NCCCn2ccnc2)no1", -3.78),
]

Incoming: Given the molecule Cc1cc2c(c(=O)n1Cc1ccco1)C(c1ccccc1)C(C#N)=C(N)O2 (stereo unspecified) , what is its reported inhibition?
Outgoing: -5.7

Incoming: Form field: reported inhibition of COc1ccc(S(=O)(=O)N2CCCCC2)cc1C(=O)NC1CCS(=O)(=O)C1 (stereo unspecified)
Outgoing: 10.9

Incoming: Look at this molecule and give its reported inhibition. "COc1cc(-c2nnc(NC(=O)CS(=O)(=O)c3ccc(Cl)cc3)o2)cc(OC)c1OC"
Outgoing: -2.3

Incoming: Item CCn1nc(C)c(CN2CCN(Cc3ccc(OC)c(C)c3C)C(CCO)C2)c1C (stereo unspecified) has what recorded inhibition?
Outgoing: 0.39

Incoming: Name the reported inhibition value associated with the molecule Cc1ccc(C(=O)OC(C)CN2CCOCC2)cc1 (stereo unspecified)
Outgoing: -1.23

Incoming: # lookup: inhibition of "Oc1c(CN2CCOCC2)ccc(CN2CCOCC2)c1O"
Outgoing: 1.64

====

- TEST SYSTEM: Nuclear receptor coactivator 1 (Homo sapiens) (UniProt Q15788)
- Sequence (Q15788 whole entry, looked up): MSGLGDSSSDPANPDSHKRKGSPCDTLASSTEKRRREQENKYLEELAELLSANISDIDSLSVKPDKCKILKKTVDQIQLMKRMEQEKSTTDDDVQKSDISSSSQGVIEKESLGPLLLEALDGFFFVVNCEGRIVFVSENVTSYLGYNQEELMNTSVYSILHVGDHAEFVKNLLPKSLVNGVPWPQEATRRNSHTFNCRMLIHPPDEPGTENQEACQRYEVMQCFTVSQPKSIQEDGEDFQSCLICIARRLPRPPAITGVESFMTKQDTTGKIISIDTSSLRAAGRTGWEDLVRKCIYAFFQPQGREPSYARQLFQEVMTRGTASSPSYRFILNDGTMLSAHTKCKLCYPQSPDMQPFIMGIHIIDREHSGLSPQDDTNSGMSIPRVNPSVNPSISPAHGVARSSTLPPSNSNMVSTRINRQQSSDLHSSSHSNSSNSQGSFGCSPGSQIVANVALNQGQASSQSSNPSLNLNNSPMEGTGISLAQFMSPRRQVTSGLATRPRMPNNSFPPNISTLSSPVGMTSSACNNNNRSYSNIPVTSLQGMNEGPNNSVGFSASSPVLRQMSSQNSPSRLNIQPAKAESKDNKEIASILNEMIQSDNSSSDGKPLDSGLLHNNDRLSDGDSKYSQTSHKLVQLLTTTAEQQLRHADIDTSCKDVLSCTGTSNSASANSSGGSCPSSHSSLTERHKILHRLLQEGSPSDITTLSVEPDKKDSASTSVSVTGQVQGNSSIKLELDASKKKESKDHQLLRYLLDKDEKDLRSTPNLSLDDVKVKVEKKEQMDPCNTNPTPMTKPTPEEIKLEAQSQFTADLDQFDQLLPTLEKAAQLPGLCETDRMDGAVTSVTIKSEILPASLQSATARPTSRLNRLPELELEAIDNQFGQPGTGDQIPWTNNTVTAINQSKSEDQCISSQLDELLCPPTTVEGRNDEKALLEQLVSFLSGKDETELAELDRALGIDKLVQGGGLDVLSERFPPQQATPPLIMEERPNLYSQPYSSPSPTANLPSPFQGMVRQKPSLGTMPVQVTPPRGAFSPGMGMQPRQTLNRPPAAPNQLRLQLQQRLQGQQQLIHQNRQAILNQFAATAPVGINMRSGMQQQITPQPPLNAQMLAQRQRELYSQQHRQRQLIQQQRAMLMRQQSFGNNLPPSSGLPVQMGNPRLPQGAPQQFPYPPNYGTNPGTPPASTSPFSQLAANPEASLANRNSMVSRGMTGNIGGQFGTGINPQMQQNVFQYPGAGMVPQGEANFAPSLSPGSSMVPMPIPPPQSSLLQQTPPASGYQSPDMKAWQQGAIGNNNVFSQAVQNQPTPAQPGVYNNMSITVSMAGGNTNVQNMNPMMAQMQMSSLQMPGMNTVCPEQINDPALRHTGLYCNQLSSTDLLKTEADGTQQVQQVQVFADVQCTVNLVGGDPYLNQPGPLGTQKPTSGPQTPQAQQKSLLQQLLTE
- PROCEDURE DETAILS: SRC1 coactivator transcriptional activity inhibitors, confirmation, cell-based, luminescence, quadruplicate (AID 588820);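 further: 0% = DMSO wells and 100% = gossypol 36 µM treated wells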
- CONDITION INFO: HEK293 GAL4-SRC1 luciferase reporter, at 3.6 µM
Active and inactive are the calls of the source.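 Rule for the calls: active = mean inhibition above 46.68%, the untreated control wells mean plus 3 SD; inactive = the rest.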
Mark one answer only. Choices: active, inactive

# COMPOUND, TEST SYSTEM, LABEL VALUE
rows = [
    ("CCN1/C(=C/c2ccc3ccccc3[n+]2CC)C=Cc2ccccc21", "Nuclear receptor coactivator 1 (Homo sapiens) (UniProt Q15788)", "active"),
    ("Cc1ccc(Sc2c(C=O)c3ccccc3n2C)cc1", "Nuclear receptor coactivator 1 (Homo sapiens) (UniProt Q15788)", "active"),
    ("CCNC(=O)C1(C)CCCN(Cc2ccc3ccccc3c2Br)C1 (stereo unspecified)", "Nuclear receptor coactivator 1 (Homo sapiens) (UniProt Q15788)", "inactive"),
]

Incoming: Would you mind telling me which call this test gave "NC(=O)C(C(=O)/C=C/c1ccc(Cl)cc1)=C1SCCS1" ?
Outgoing: inactive

Incoming: Please indicate how the test categorized "COc1cccc(CN(C)C(=O)c2ccc(OCC(=O)Nc3cccc(C(F)(F)F)c3)c(OC)c2)c1" .
Outgoing: inactive

Incoming: Which outcome was assigned to "Cc1ccc(NC(=O)CCC(=O)N/N=C/c2ccc(O)cc2O)cc1" in this test?
Outgoing: inactive

Incoming: # outcome recorded in this test, key = "Cc1ccc(OCC(=O)NC(=S)Nc2ccccn2)c(Br)c1"
Outgoing: inactive

Incoming: What was the test verdict on C/C(=N\N=C1\NC(=O)C(CC(=O)O)S1)c1ccccn1 (stereo unspecified) ?
Outgoing: inactive

Incoming: Assay result, entry "CCSCCc1nnc(NC(=O)Nc2cccc(C(F)(F)F)c2)s1" — outcome?
Outgoing: inactive

Incoming: Check the results log: what was the call for "CCCCC[n+]1cccc2c3ccccc3ccc21" ?
Outgoing: inactive

Incoming: Called result for CCC(C(=O)OCC(=O)Nc1cc(Cl)cc(Cl)c1)c1ccccc1 (stereo unspecified)
Outgoing: inactive
